This collection of values is drawn from PubChem BioAssay (NCI).

Provide the recorded log10(TGI) for the entries that follow.
Test system: SK-MEL-2 melanoma
Experiment: NCI tumour cell line growth inhibition, 48 h
Recorded TGI (log10, µM)

// solved cases for log10(TGI) follow
CC[C@H](C)[C@H](NC(=O)[C@H]1CCCCN1C)C(=O)N(C)[C@H](C[C@@H](OC(C)=O)c1cccc(C(=O)N[C@@H](Cc2ccccc2)C[C@H](C)C(=O)OC)n1)C(C)C    1.01
O=C1NC(=C(Cl)Cl)/C(=N/S(=O)(=O)N2CCCCC2)N1    0.89
CC(C)(C)C(=O)OCOP(=O)(NCc1ccccc1)C1CCCN(O)C1=O (centres undefined)    1.19
CC1(C)OC2C(COC(c3ccccc3)(c3ccccc3)c3ccccc3)OC(c3c[nH]c4c(N)ncnc34)C2O1 (centres undefined)    1.47
COc1cccc2c1c1ccc3c(c1n2C)C(=O)C=CC3=O    1.52

Look up log10(TGI) for the entries below, preserving their order.
1. CCC[C@H]1O[C@@H]2CC(=O)O[C@@H]2C2=C1C(=O)C=CC2=O
2. Cc1onc(-c2ccccc2)c1C(=O)N/N=C/c1cc(Cl)cc(Cl)c1O
3. Cc1cc2c(C(=O)NC[C@H](C)c3ccccc3)c(O)c(O)cc2c(O)c1-c1c(C)cc2c(C(=O)NC[C@H](C)c3ccccc3)c(O)c(O)cc2c1O
4. Cc1cc(NC2=CC(=O)C(=O)c3ccccc32)no1
5. C/C=C(\C)c1cc(=O)c2c(C)cc3c(c2o1)C(=O)c1c(O)c(C2CC(C)(N(C)C)C(OC(C)=O)C(C)O2)cc(C2CC(N(C)C)C(O)C(C)O2)c1C3=O (centres undefined)

1. 1.59
2. 1.75
3. 0.63
4. 1.02
5. 0.46

Reported log10(TGI) of Clc1c(Cl)[n+](Cc2ccc3ccccc3c2)cn1Cc1ccc2ccccc2c1 : 0.51

----------
Tested on: OVCAR-4 ovarian
Assay: NCI tumour cell line growth inhibition, 48 h
Provide the recorded TGI for the entries that follow.

Look up TGI for the entries below, preserving their order.
1. COc1ccc2c(c1)C(=O)c1c-2n(CCCN(C)C)c(=O)c2ccccc12
2. CCOc1cc(C2CC(c3ccc(NS(=O)(=O)c4cc([N+](=O)[O-])ccc4C)cc3)=NN2S(=O)(=O)c2cc([N+](=O)[O-])ccc2C)ccc1O (stereo unspecified)
3. CC(=O)Nc1ccc2c(c1)/C(=C\c1ccc([N+](C)(C)C)cc1)c1ccccc1-2
4. COc1ccc(C(c2ccccc2)(c2ccc(OC)cc2)N2C(=O)NC3C(CCCCC(=O)NCCCCCCOP(OCCC#N)N(C(C)C)C(C)C)SCC32)cc1 (stereo unspecified)

1. 6.87 µM
2. > 100 µM
3. > 100 µM
4. 40 µM

Look up TGI for the entries below, preserving their order.
1. C=CCN(c1cc(OC)c(NC(C)=O)cc1[N+](=O)[O-])S(C)(=O)=O
2. Cc1cnc2ccc(C)c([N+](=O)[O-])c2c1NCCCN(C)C
3. O=c1c2cc(-c3ccccc3)cnc2sn1-c1ccc(Br)cc1
4. Cc1ccc(O)c(NC(=O)c2cccc(Nc3ccnc(C(F)(F)F)c3)c2)c1
5. Cc1cc(S(=O)(=O)NC2=NCc3nc4ccccc4n32)c(S)cc1Cl
6. O=C(O)CSc1n[nH]c(=O)[nH]c1=O
7. FC1(F)[Se]C2C3CCC(C3)C2C1(F)F (stereo unspecified)

1: > 100 µM; 2: > 100 µM; 3: > 100 µM; 4: 31.2 µM; 5: 83.2 µM; 6: > 100 µM; 7: > 100 µM

Look up TGI for the entries below, preserving their order.
1. O=C1NC2c3c(I)sc(I)c3C(=O)C2O1 (stereo unspecified)
2. Oc1ccc(C=Nc2ccccc2O)cc1
3. COC(=O)[C@]12CC3C=CC1N(C3)C(CBr)c1c2n(S(=O)(=O)c2ccccc2)c2ccccc12 (stereo partly specified)
4. COC1/C=C(C)/C=C/C(C)/C=C/C(=O)OC(/C(C)=C/C=C(\C)CNC(=O)[C@H](CO)NC=O)C(C)/C=C/C=C/C(OC)CC/C=C(C)/C=C/C1 (stereo partly specified)
5. CCN(CC)CCCNc1nccc2c(C)c3c(cc12)c1cnccc1n3C
6. N#CC12C(=O)NC(=O)C1(C#N)C1C=CC2CC1 (stereo unspecified)
7. CCOC(=O)c1cnc(N(C)C)nc1SC(=N)N

1: 23 µM; 2: > 100 µM; 3: > 100 µM; 4: > 1 µM; 5: 0.131 µM; 6: > 100 µM; 7: > 100 µM

Look up TGI for the entries below, preserving their order.
1. O=C(CSCC(=O)N/N=C/c1ccc2c(c1)OCO2)N/N=C/c1ccc2c(c1)OCO2
2. CC1=N/C(=C/c2ccc3c(c2)OCO3)C(=O)O1
3. c1ccc2c(CSCc3cccc4ccccc34)cccc2c1

> 100 µM
> 100 µM
> 100 µM
